Experiment: self-splicing fitness, log relative to wild type (ln ratio); higher = more splicing; Tetrahymena group I intron in knt gene, E. coli kanamycin selection, DiMSum; sequences stand for … in CUCUCU…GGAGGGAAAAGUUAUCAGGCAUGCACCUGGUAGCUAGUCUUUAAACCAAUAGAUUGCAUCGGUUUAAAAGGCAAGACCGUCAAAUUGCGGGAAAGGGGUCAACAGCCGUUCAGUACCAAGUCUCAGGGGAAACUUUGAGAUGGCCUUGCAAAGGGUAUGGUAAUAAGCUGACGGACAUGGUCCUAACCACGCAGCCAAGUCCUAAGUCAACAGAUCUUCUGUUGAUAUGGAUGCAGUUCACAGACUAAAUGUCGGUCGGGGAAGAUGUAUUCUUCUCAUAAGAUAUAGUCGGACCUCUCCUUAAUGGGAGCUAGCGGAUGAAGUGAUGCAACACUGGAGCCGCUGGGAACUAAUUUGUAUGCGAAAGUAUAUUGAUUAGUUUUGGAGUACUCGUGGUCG;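 further: selection with 25 µg/mL kanamycin versus none on LB agar overnight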
Settings: 30 °C
Please use label 1 whenever self-splicing fitness (ln) is not below -2, and label 0 whenever it is.

construct sequence | discrete label
AGUGAGCAAUAUUACGAUAG | label 0
AAUCAGCAAUAUUACGGGCA | label 1
GAUCAGCAAUAUUACGGUUG | label 1
CGUUAGCAAUAUUACGGGGU | label 0
CAUUAGCAAUAUUACGAUAA | label 0
CGGCAGCAAUAUUACGUUAG | label 1
AUAAAGCAAUAUUACGGCUA | label 1
GCCCAGCAAUAUUACGUCGC | label 1
GGUCAGCAAUAUUACGCAUA | label 1
CUAUAGCAAUAUUACGAAUA | label 0
CUGAAGCAAUAUUACGAUCG | label 1
GUAUAGCAAUAUUACGCAAA | label 0
AUCGAGCAAUAUUACGAAAU | label 0
CACCAGCAAUAUUACGAAGC | label 0
GUCCAGCAAUAUUACGAACU | label 1
CGCCAGCAAUAUUACGAUCA | label 1
GUCGAGCAAUAUUACGUGUU | label 0
ACUUAGCAAUAUUACGCGGC | label 0
CAAGAGCAAUAUUACGUGCG | label 1
CCGGAGCAAUAUUACGAAGG | label 0
AAUCAGCAAUAUUACGGCGA | label 1
